meta.source: paper PMC3570588

# target: B. anthracis DHFR (Bacillus anthracis)
# Sequence (Q81R22 1-162): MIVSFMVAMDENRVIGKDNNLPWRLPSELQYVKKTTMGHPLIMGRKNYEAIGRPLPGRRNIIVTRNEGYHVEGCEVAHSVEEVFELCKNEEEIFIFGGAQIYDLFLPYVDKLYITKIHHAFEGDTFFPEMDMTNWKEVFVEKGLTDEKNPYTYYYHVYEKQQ
# Type: biochemical
# recorded.conditions: read-out: Ki, nM (SEM) B. anthracis Sterne; pH 7.0, 30 °C
Item-by-item account of Ki
Output spec: scalar in nM, unitless text.

Below are worked cases with known answers.
CCc1nc(N)nc(N)c1Cc1cc(/C=C/C(=O)N2N=Cc3ccccc3C2C=C(C)C)c(OC)c(OC)c1 (racemic) [Compound 12b]: 25.4
CCCC1c2ccccc2C=NN1C(=O)/C=C/c1cc(Cc2c(C)nc(N)nc2N)cc(OC)c1OC (racemic) [Compound 11a]: 72.4

Turning to the following molecule.
response.value for COc1cc(Cc2c(C)nc(N)nc2N)cc(/C=C/C(=O)N2N=Cc3ccccc3C2C=C(C)C)c1OC (racemic) [Compound 12a] (field: Ki) = 14.3
